Test system: SK-MEL-2
method-notes: Cytotoxicity against human SK-MEL-2 cells after 3 days by SRB assay
Format: functional, cell-based
conditions: SK-MEL-2, 72 h
Criterion: IC50 strictly under 10 µg/mL. Met: true. Not met: false.

- mol-smiles: "CC(C)=CCc1c2c(c(O)c3c1O[C@H](c1ccccc1O)CC3=O)C=CC(C)(C)O2"
  measured-target: "SK-MEL-2"
  category: "true"
- mol-smiles: "CC(C)=CCc1c2c(c(O)c3c1O[C@H](c1ccccc1)[C@@H](O)C3=O)C=CC(C)(C)O2"
  measured-target: "SK-MEL-2"
  category: "true"
- mol-smiles: "CO[C@H]1C(=O)c2c(O)c3c(c(CC=C(C)C)c2O[C@@H]1c1ccccc1O)OC(C)(C)C=C3"
  measured-target: "SK-MEL-2"
  category: "true"

Query :: Determine if `CC(C)=CCc1c2c(c(O)c3c1O[C@H](c1ccccc1O)[C@@H](O)C3=O)C=CC(C)(C)O2` shows IC50 strictly lower than 10 µg/mL.
Result :: false

Query :: Determine if `CC1(C)C=Cc2c(cc3c(c2O)C(=O)C[C@@H](c2ccccc2O)O3)O1` shows IC50 strictly lower than 10 µg/mL.
Result :: false

Query :: Determine if `CO[C@H]1C(=O)c2c(cc3c(c2O)C=CC(C)(C)O3)O[C@@H]1c1ccccc1O` shows IC50 strictly lower than 10 µg/mL.
Result :: false
